// cross-source set; read-out = IC50; system = Tyrosine-protein kinase JAK2 (Homo sapiens, UniProt O60674)

Molecule	IC50
CC1(C)CN(C(=O)CC#N)C[C@H](F)[C@@H]1Oc1ccc(-c2ncnc(Nc3ccc(N4CCN(C5COC5)CC4)cc3)n2)cc1C#N	443 nM
COC(=O)Nc1ccc(Nc2ncc(C)c(-c3cnn(C(CC#N)C4CCCC4)c3)n2)cc1 (racemic)	< 100 nM
O=C(NCC1CCCO1)c1ccc(-c2ccnc(Nc3ccc(N4CCOCC4)cc3)n2)cc1 (stereo not shown)	< 500 nM

Next item in the queue.
*Q* Requested field: IC50. Item: `O=C1NCCCCOCc2cc(ccc2OC2CCOCC2)Nc2nccc(n2)-c2ccc1cc2[N+](=O)[O-]`
*A* 1000 to 10000 nM
